Reference source: the supplement of paper PMC8882468

System: HCI-012 (organoid from a breast cancer xenograft)
Assay: CTG-3D luminescence at 96 h relative to day-0 seeding control (ratio to day 0); higher = more growth / less cytotoxicity; PDxO 3D drug screen (set 2), 96 h, CTG-3D normalised to day-0 seeding control.
Conditions: 10 µM; days in culture: 256
# binarize CTG-3D luminescence at 96 h: threshold 0.5 inclusive, high side Fulfilled, low side Not fulfilled

[
  {
    "COMPOUND": "Cc1c(CN2CCN(C(=O)[C@H](C)O)CC2)sc2c(N3CCOCC3)nc(-c3cnc(N)nc3)nc12",
    "TESTED SYSTEM": "HCI-012",
    "GROUP LABEL": "Not fulfilled"
  },
  {
    "COMPOUND": "CS(=O)(=O)CCNCc1ccc(-c2ccc3ncnc(Nc4ccc(OCc5cccc(F)c5)c(Cl)c4)c3c2)o1",
    "TESTED SYSTEM": "HCI-012",
    "GROUP LABEL": "Fulfilled"
  },
  {
    "COMPOUND": "COc1cccc2c1C(=O)c1c(O)c3c(c(O)c1C2=O)C[C@@](O)(C(=O)CO)C[C@@H]3O[C@H]1C[C@H](N)[C@@H](O)[C@H](C)O1 [epirubicin]",
    "TESTED SYSTEM": "HCI-012",
    "GROUP LABEL": "Not fulfilled"
  },
  {
    "COMPOUND": "Nc1cc(C(F)(F)F)c(-c2cc(N3CCOCC3)nc(N3CCOCC3)n2)cn1",
    "TESTED SYSTEM": "HCI-012",
    "GROUP LABEL": "Not fulfilled"
  }
]

----------
Below, each of the molecules is paired with its reported CTG-3D luminescence at 96 h value.
Test system: HCI-001 (organoid from a triple-negative breast cancer xenograft)
Experiment: CTG-3D luminescence at 96 h relative to day-0 seeding control (ratio to day 0); higher = more growth / less cytotoxicity; PDxO 3D drug screen, 96 h, CTG-3D normalised to day-0 seeding control.
Conditions: 0.005 µM; days in culture: 346

[
  {
    "MOLECULE": "C[C@H](NC(=O)CCC(F)(F)F)C(=O)N[C@@H]1C(=O)N(CCO)c2ncccc2-c2ccccc21",
    "CTG-3D luminescence at 96 h": 1.1
  },
  {
    "MOLECULE": "CN(Cc1cnc2nc(N)nc(N)c2n1)c1ccc(C(=O)N[C@@H](CCC(=O)O)C(=O)O)cc1 [methotrexate]",
    "CTG-3D luminescence at 96 h": 1.28
  },
  {
    "MOLECULE": "CCN1CCN(Cc2ccc(Nc3ncc(F)c(-c4cc(F)c5nc(C)n(C(C)C)c5c4)n3)nc2)CC1",
    "CTG-3D luminescence at 96 h": 1.18
  },
  {
    "MOLECULE": "O=C(/C=C/c1cccnc1)NCCCCC1CCN(C(=O)c2ccccc2)CC1",
    "CTG-3D luminescence at 96 h": 0.416
  },
  {
    "MOLECULE": "NC1(C(=O)N[C@@H](CCO)c2ccc(Cl)cc2)CCN(c2nc[nH]c3nccc2-3)CC1",
    "CTG-3D luminescence at 96 h": 1.35
  },
  {
    "MOLECULE": "Cc1nc(-c2cn3c(n2)-c2ccc(-c4cnn(C(C)(C)C(N)=O)c4)cc2OCC3)n(C(C)C)n1",
    "CTG-3D luminescence at 96 h": 1.02
  },
  {
    "MOLECULE": "CC[C@H](NC(=O)[C@H](C)NC)C(=O)N1C[C@@H](O)C[C@H]1Cc1c(-c2[nH]c3cc(F)ccc3c2C[C@@H]2C[C@H](O)CN2C(=O)[C@H](CC)NC(=O)[C@H](C)NC)[nH]c2cc(F)ccc12",
    "CTG-3D luminescence at 96 h": 1.12
  }
]

----------
Tested on: HCI-002 (organoid from a triple-negative breast cancer xenograft)
Test: CTG-3D luminescence at 96 h relative to day-0 seeding control (ratio to day 0); higher = more growth / less cytotoxicity; PDxO 3D drug screen, 96 h, CTG-3D normalised to day-0 seeding control.
Conditions: 0.005 µM; days in culture: 62
// CTG-3D luminescence at 96 h lookup, one value per entry

[
  {
    "SMILES STR": "Cc1cc(Nc2ncnc3ccc(NC4=NC(C)(C)CO4)cc23)ccc1Oc1ccn2ncnc2c1",
    "TESTED SYSTEM": "HCI-002",
    "CTG-3D luminescence at 96 h": 3.08
  },
  {
    "SMILES STR": "CS(=O)(=O)c1ccc(C(=O)Nc2ccc(Cl)c(-c3ccccn3)c2)c(Cl)c1",
    "TESTED SYSTEM": "HCI-002",
    "CTG-3D luminescence at 96 h": 3.64
  },
  {
    "SMILES STR": "NC(=O)Nc1cc(-c2cccc(F)c2)sc1C(=O)N[C@H]1CCCNC1",
    "TESTED SYSTEM": "HCI-002",
    "CTG-3D luminescence at 96 h": 2.85
  },
  {
    "SMILES STR": "CC(C)n1nc(-c2ccc3oc(N)nc3c2)c2c(N)ncnc21",
    "TESTED SYSTEM": "HCI-002",
    "CTG-3D luminescence at 96 h": 2.7
  },
  {
    "SMILES STR": "CCN(c1cc(C#CCN2CCOCC2)cc(C(=O)NCc2c(C)cc(C)[nH]c2=O)c1C)[C@H]1CC[C@H](N(C)CCOC)CC1",
    "TESTED SYSTEM": "HCI-002",
    "CTG-3D luminescence at 96 h": 4.04
  },
  {
    "SMILES STR": "COc1cc2c(Oc3ccc4[nH]c(C)cc4c3F)ncnc2cc1OCCCN1CCCC1",
    "TESTED SYSTEM": "HCI-002",
    "CTG-3D luminescence at 96 h": 2.84
  },
  {
    "SMILES STR": "CC1(C)CCC(c2ccc(Cl)cc2)=C(CN2CCN(c3ccc(C(=O)NS(=O)(=O)c4ccc(N[C@H](CCN5CCOCC5)CSc5ccccc5)c(S(=O)(=O)C(F)(F)F)c4)cc3)CC2)C1",
    "TESTED SYSTEM": "HCI-002",
    "CTG-3D luminescence at 96 h": 3.78
  },
  {
    "SMILES STR": "C[C@@H]1COCCN1c1cc(C2([S@](C)(=N)=O)CC2)nc(-c2cc[nH]c3nccc2-3)n1",
    "TESTED SYSTEM": "HCI-002",
    "CTG-3D luminescence at 96 h": 2.76
  },
  {
    "SMILES STR": "O=C(c1ccc(F)c(F)c1Nc1ccc(I)cc1F)N1CC(O)([C@@H]2CCCCN2)C1",
    "TESTED SYSTEM": "HCI-002",
    "CTG-3D luminescence at 96 h": 2.87
  },
  {
    "SMILES STR": "Cc1nc(-c2cn3c(n2)-c2ccc(-c4cnn(C(C)(C)C(N)=O)c4)cc2OCC3)n(C(C)C)n1",
    "TESTED SYSTEM": "HCI-002",
    "CTG-3D luminescence at 96 h": 2.69
  },
  {
    "SMILES STR": "Nc1ccn([C@@H]2O[C@H](CO)[C@@H](O)C2(F)F)c(=O)n1",
    "TESTED SYSTEM": "HCI-002",
    "CTG-3D luminescence at 96 h": 2.68
  }
]

----------
Test system: HCI-010 (organoid from a breast cancer xenograft)
Assay: CTG-3D luminescence at 96 h relative to day-0 seeding control (ratio to day 0); higher = more growth / less cytotoxicity; PDxO 3D drug screen (set 2), 96 h, CTG-3D normalised to day-0 seeding control.
Conditions: 0.005 µM; days in culture: 86
Reported CTG-3D luminescence at 96 h values follow for various compounds
OBSERVED PROPERTY: CTG-3D luminescence at 96 h

[
  {
    "SMILES STR": "O=C(c1cc(Cc2n[nH]c(=O)c3ccccc23)ccc1F)N1CCN(C(=O)C2CC2)CC1",
    "OBSERVED PROPERTY": "CTG-3D luminescence at 96 h",
    "OBSERVED VALUE": 2.59
  },
  {
    "SMILES STR": "Cc1c(CN2CCN(C(=O)[C@H](C)O)CC2)sc2c(N3CCOCC3)nc(-c3cnc(N)nc3)nc12",
    "OBSERVED PROPERTY": "CTG-3D luminescence at 96 h",
    "OBSERVED VALUE": 2.49
  },
  {
    "SMILES STR": "CO[C@H]1C[C@@H]2CC[C@@H](C)[C@@](O)(O2)C(=O)C(=O)N2CCCC[C@H]2C(=O)O[C@H]([C@H](C)C[C@@H]2CC[C@@H](O)[C@H](OC)C2)CC(=O)[C@H](C)/C=C(\\C)[C@@H](O)[C@@H](OC)C(=O)[C@H](C)C[C@H](C)/C=C/C=C/C=C/1C",
    "OBSERVED PROPERTY": "CTG-3D luminescence at 96 h",
    "OBSERVED VALUE": 1.61
  },
  {
    "SMILES STR": "CC(=O)c1c(C)c2cnc(Nc3ccc(N4CCNCC4)cn3)nc2n(C2CCCC2)c1=O",
    "OBSERVED PROPERTY": "CTG-3D luminescence at 96 h",
    "OBSERVED VALUE": 2.72
  }
]
